# credit: patent US20240043504A1

Target: T1, MERS-CoV (NCoV/Novel coronavirus) Spike Protein fragment (RBD, aa 367-606, His Tag) (Sino 40071-V08B1) (MERS-CoV, UniProt K9N5Q8 367-606)
T1 sequence: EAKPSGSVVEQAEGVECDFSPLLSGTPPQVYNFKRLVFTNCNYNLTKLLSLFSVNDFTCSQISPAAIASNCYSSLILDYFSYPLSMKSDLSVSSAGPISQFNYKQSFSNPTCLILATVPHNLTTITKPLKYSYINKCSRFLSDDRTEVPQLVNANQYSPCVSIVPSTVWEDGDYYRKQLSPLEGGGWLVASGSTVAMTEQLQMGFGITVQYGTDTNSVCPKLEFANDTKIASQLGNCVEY
Test: Luminex, supernatant
Threshold check on MFI: strictly below 30 MFI is criterion met; on or above 30 MFI is criterion not met.

{"binder": "mAb10938 (antibody, V domains shown) VH: EVQLVESGGGLVQPGGSLRLSCAVSGFTVSSNYMSWVRQAPGKGLEWVSLIYSGGSTFYADSVKGRFTISRHNSKNTLYLQMNSLRAEDTAVYYCAREGGYSYDYNYWGQGTLVTVSS VL: DIQMTQSPSSLSASVGDRVTITCQASQDIRNYLNWYQQKPGKAPKLLIYDASNLETGVPSRFSGIGSGTDFTFTISSLQPEDIATYYCQQYDNLPITFGQGTRLEIKR", "assigned class": "criterion met"}
{"binder": "mAb10920 (antibody, V domains shown) VH: QVQLVESGGGVVQPGRSLRLSCAASGFTFSYYGMHWVRQAPGKGLEWVAVIWYDGSNKFYADSVKGRFTISRDNSKNTLYLQMNSLRAEDTAVYYCAAARPGYYYGMDVWGQGTTVTVSS VL: DIQMTQSPSSLSASVGDRVTITCRASQGISNYLAWFQQKPGKAPNSLIYAASSLQRGVPSKFSGSGSGTDFTLTISSLQPEDFATYYCQQYNSYPRTFGQGTKVEIKR", "assigned class": "criterion not met"}
{"binder": "mAb10985 (antibody, V domains shown) VH: EVQLVESGGGLVQPGRSLRLSCAASGFTFDDYAMHWVRQAPGKGLEWVSGISWNRGSIGYADSVKGRFTISRDNAKNSLYLQMSSLRAEDTALYYCAKDGERWDSVVVPSARNGMDVWGQGTTVTVSS VL: QSVLTQPPSVSGAPGQRVTISCTGSSSNIGAGYDVHWYQQLPGTAPKLLIYGNSNRPSGVPDRFSGSKSGTSASLAITGLQAEDEADYYCQSYDSSLSGSYVFGTGTKVTVLG", "assigned class": "criterion not met"}
{"binder": "mAb10986 (antibody, V domains shown) VH: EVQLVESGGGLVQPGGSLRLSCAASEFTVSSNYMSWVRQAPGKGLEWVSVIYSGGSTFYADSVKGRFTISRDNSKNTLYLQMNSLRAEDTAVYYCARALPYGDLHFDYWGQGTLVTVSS VL: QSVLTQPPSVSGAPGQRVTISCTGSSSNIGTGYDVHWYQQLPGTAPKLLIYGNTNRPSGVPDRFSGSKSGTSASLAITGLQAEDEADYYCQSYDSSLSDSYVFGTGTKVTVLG", "assigned class": "criterion met"}
{"binder": "mAb10913 (antibody, V domains shown) VH: EVQLVESGGGLVQPGGSLRLSCAASGFTFRNYEMNWVRQAPGKGLEWVSYITSSGSTMYYADSVKGRFTISRDNAKNSLYLQMNSLRAEDTAVYYCARDGFYYYYAMDVWGQGTTVTVSS VL: QSVLTQPPSVSAAPGQKVTISCSGSSSNIGNNYVSWYQQLPGTAPKLLIYDNNKRPSGIPDRFSGSKSGTSATLGITGLQTGDEADYYCGTWDSSLSVGRVFGTGTKVTVLG", "assigned class": "criterion not met"}
